System: Plasmodium falciparum
test_name: Anti-protozoan data: P. falcip. IC50
Format: cell-based
run_conditions: Tables VI(a), VI(c), read-out: P. falcip. IC50
Exercise: state measured IC50 for each of the compounds provided.
Give bare numbers, in nM.

The examples below pair each entry with its known result.
[[record]]
compound = "Cl.Cl.N=C(N)c1ccc(OCCCCCOc2cccc(-c3cc4cc(C(=N)N)ccc4o3)c2)cc1 [Compound 38, dihydrochloride]"
property_name = "IC50"
numeric_readout = 428

[[record]]
compound = "CC(C)NC(=N)c1ccc(OCCCCCOc2ccc(-c3cc4ccc(C(=N)NC(C)C)cc4o3)cc2)cc1.Cl.Cl [Compound 75, dihydrochloride]"
property_name = "IC50"
numeric_readout = 74.4

[[record]]
compound = "Cl.Cl.N=C(N)c1ccc(OCCCCCOc2cccc(-c3cc4ccc(C(=N)N)cc4o3)c2)cc1 [Compound 62, dihydrochloride]"
property_name = "IC50"
numeric_readout = 282


Please examine the following record next.
Enquiry: Let me know recorded IC50 for N=C(NO)c1ccc2oc(CCc3cc4cc(C(=N)NO)ccc4o3)cc2c1 [Compound 190] , thanks.
Return: 400

* * *

Test system: Plasmodium falciparum
test_name: Anti-protozoan data: P. falcip. IC50
Type: cell-based
run_conditions: Tables VI(a), VI(c), read-out: P. falcip. IC50
Hi! Just check whether IC50 is below 0.3 µM. Below gives 1, equal or above gives 0.

Field: example entries. Status: answers known.
[[record]]
compound = "CC(C)NC(=N)c1ccc(OCCCCOc2cccc(-c3cc4cc(C(=N)NC(C)C)ccc4o3)c2)cc1.Cl.Cl [Compound 36, dihydrochloride]"
group_label = 1

[[record]]
compound = "N=C(NO)c1ccc2oc(CCCCc3cc4cc(C(=N)NO)ccc4o3)cc2c1"
group_label = 0

[[record]]
compound = "Cl.Cl.c1cc(OCCCOc2ccc(C3=NCCN3)cc2)cc(-c2cc3ccc(C4=NCCN4)cc3o2)c1 [Compound 58, dihydrochloride]"
group_label = 1

[[record]]
compound = "CC(C)NC(=N)c1ccc(OCCCCCCOc2cccc(-c3cc4ccc(C(=N)NC(C)C)cc4o3)c2)cc1.Cl.Cl [Compound 66, dihydrochloride]"
group_label = 0


Enquiry: Lab note: IC50 threshold 0.3 µM. Does this compound come in strictly under it? N=C(NO)c1ccc2oc(CCCCCc3cc4cc(C(=N)NO)ccc4o3)cc2c1
Return: 0

Enquiry: Check if IC50 falls below 0.3 µM for Cl.Cl.N=C(N)c1ccc(OCCCCOc2ccc(-c3cc4ccc(C(=N)N)cc4o3)cc2)cc1 [Compound 71, dihydrochloride] .
Return: 1

Enquiry: For this compound, is IC50 lower than 0.3 µM? N=C(NO)c1ccc2cc(CCCCCc3cc4ccc(C(=N)NO)cc4o3)oc2c1
Return: 0

* * *

Tested on: Plasmodium falciparum
test_name: Anti-protozoan data: P. falcip. IC50
Assay type: cell-based
run_conditions: Tables VI(a), VI(c), read-out: P. falcip. IC50
Kindly state pIC50 for each of the entries shown.
One number for each entry, as −log10 of the molar value.

// worked examples, pIC50 included
[[record]]
molecule = "CC(C)NC(=N)c1ccc(OCCCCCOc2ccc(-c3cc4cc(C(=N)NC(C)C)ccc4o3)cc2)cc1.Cl.Cl [Compound 51, dihydrochloride]"
numeric_readout = 6.72

[[record]]
molecule = "Cl.Cl.N=C(N)c1ccc2oc(CCc3cc4cc(C(=N)N)ccc4o3)cc2c1 [Compound 8, dihydrochloride]"
numeric_readout = 8.60

[[record]]
molecule = "CC(C)NC(=N)c1ccc(OCCCCOc2ccc(-c3cc4ccc(C(=N)NC(C)C)cc4o3)cc2)cc1.Cl.Cl [Compound 72, dihydrochloride]"
numeric_readout = 6.86

[[record]]
molecule = "Cl.Cl.c1cc(C2=NCCN2)ccc1OCCCCOc1ccc(-c2cc3cc(C4=NCCN4)ccc3o2)cc1 [Compound 49, dihydrochloride]"
numeric_readout = 7.19

[[record]]
molecule = "Cl.Cl.c1cc(C2=NCCN2)ccc1OCCCCCCOc1ccc(-c2cc3ccc(C4=NCCN4)cc3o2)cc1 [Compound 79, dihydrochloride]"
numeric_readout = 7.50


Field: pIC50. Fill in for each record below.
1. CC(C)NC(=N)c1ccc(OCCCOc2ccc(-c3cc4ccc(C(=N)NC(C)C)cc4o3)cc2)cc1.Cl.Cl [Compound 69, dihydrochloride]
2. CONC(=N)c1ccc2cc(CCCCCc3cc4ccc(C(=N)NOC)cc4o3)oc2c1 [Compound 187]

Return:
7.44
5.01

Give one value of pIC50 per listed molecule.
1. Cl.Cl.N=C(N)c1ccc(OCCCCOc2cccc(-c3cc4cc(C(=N)N)ccc4o3)c2)cc1 [Compound 35, dihydrochloride]
2. CC(C)NC(=N)c1ccc(OCCCCCCOc2ccc(-c3cc4cc(C(=N)NC(C)C)ccc4o3)cc2)cc1.Cl.Cl [Compound 54, dihydrochloride]
3. N=C(NO)c1ccc(OCCCCCOc2ccc(-c3cc4cc(C(=N)NO)ccc4o3)cc2)cc1 [Compound 183]
4. Cl.Cl.c1cc(OCCCCOc2ccc(C3=NCCN3)cc2)cc(-c2cc3cc(C4=NCCN4)ccc3o2)c1 [Compound 37, dihydrochloride]

Return:
7.12
7.20
6.54
7.01

Enquiry: Specify measured pIC50 for Cl.Cl.c1cc(OCCCOc2ccc(C3=NCCN3)cc2)cc(-c2cc3cc(C4=NCCN4)ccc3o2)c1 [Compound 34, dihydrochloride] .
Return: 6.96
